Measured viability, T/C values are reported for all entries that follow.
system: 287954-098-R-J1 tumor spheroid viability; assay: Anticancer human tumor 287954-098-R-J1 patient-derived Ewing sarcoma cell line growth inhibition; conditions: second compound 0.000949 µM; first compound 0.0316 µM; active compounds read low; spheroids with HUVEC and MSC
The response must be a number in % with no trailing unit.

Below, each entry is followed by its recorded viability, T/C result.
* Cc1cc(C)c(CNC(=O)c2cc(-c3ccc(CN4CCOCC4)cc3)cc3c2cnn3C2CCCC2)c(=O)[nH]1 + COc1cc2c(cc1O)CCNC21CSC2c3c(OC(C)=O)c(C)c4c(c3C(COC1=O)N1C(O)C3Cc5cc(C)c(OC)c(O)c5C(C21)N3C)OCO4 | 0.27
* COc1ccc([C@@H](O)c2cc(-c3ncnc4cc(N5CCOCC5)ccc34)c(F)cc2Cl)nn1 + COc1cc2c(cc1O)CCNC21CSC2c3c(OC(C)=O)c(C)c4c(c3C(COC1=O)N1C(O)C3Cc5cc(C)c(OC)c(O)c5C(C21)N3C)OCO4 | 0.54
* CC1COCCN1c1cc(-c2ccnn2C)c2ccnc(-c3ccn[nH]3)c2n1 (stereo unspecified) + COc1cc2c(cc1O)CCNC21CSC2c3c(OC(C)=O)c(C)c4c(c3C(COC1=O)N1C(O)C3Cc5cc(C)c(OC)c(O)c5C(C21)N3C)OCO4 | 0.28
* [2H]c1nc(C)nc([2H])c1-c1cc(NC[C@@H](C)c2cccc3c(C(=O)NC)ccnc23)ncn1 + COc1cc2c(cc1O)CCNC21CSC2c3c(OC(C)=O)c(C)c4c(c3C(COC1=O)N1C(O)C3Cc5cc(C)c(OC)c(O)c5C(C21)N3C)OCO4 | 0.38

Entry COc1cc(C)[nH]c(=O)c1CN1CCc2c(Cl)cc(C(OC)C3COC3)c(Cl)c2C1=O (stereo unspecified) + COc1cc2c(cc1O)CCNC21CSC2c3c(OC(C)=O)c(C)c4c(c3C(COC1=O)N1C(O)C3Cc5cc(C)c(OC)c(O)c5C(C21)N3C)OCO4 : reported viability, T/C = ?
0.52

Now this one: CC(C)n1c(=O)n(C)c2cnc3cc(F)c(-c4ccc(OCCCN5CCCCC5)nc4)cc3c21 + COc1cc2c(cc1O)CCNC21CSC2c3c(OC(C)=O)c(C)c4c(c3C(COC1=O)N1C(O)C3Cc5cc(C)c(OC)c(O)c5C(C21)N3C)OCO4
0.31

###

system: 287954-098-R-J1 tumor spheroid viability; assay: Anticancer human tumor 287954-098-R-J1 cell line growth inhibition; conditions: second compound 31.6 µM; first compound 0.0949 µM; active compounds read low; spheroids with HUVEC and MSC;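 also: luminescent signal taken as surrogate of viable cell content; spheroids exposed to compound for 7 days before viability readout; 100% = DMSO vehicle control viability and lower means growth inhibition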
Measured viability, T/C, listed per entry.
Field format: number, assumed %, no unit text.

* CNCc1ccc(-c2cc(-c3nc(-c4ccc(S(=O)(=O)C(C)C)cc4)cnc3N)on2)cc1 + Cn1nnc2c(C(N)=O)ncn2c1=O | 121
* Cc1sc2c(c1C)C(c1ccc(Cl)cc1)=NC(CC(=O)Nc1ccc(O)cc1)c1nnc(C)n1-2 (centres undefined) + Cn1nnc2c(C(N)=O)ncn2c1=O | 121
* O=C(c1cc(Cc2n[nH]c(=O)c3ccccc23)ccc1F)N1CCN(C(=O)C2CC2)CC1 + Cn1nnc2c(C(N)=O)ncn2c1=O | 107

Please report the recorded viability, T/C for Cn1ncnc1[C@H]1c2n[nH]c(=O)c3cc(F)cc(c23)N[C@@H]1c1ccc(F)cc1 + Cn1nnc2c(C(N)=O)ncn2c1=O .
17.9

###

Test system: 287954-098-R-J1 tumor spheroid viability
Assay: Anticancer human tumor 287954-098-R-J1 cell line growth inhibition; active = viability on the fitted dose curve at most 10% of control; inactive = the rest;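 also: luminescent signal taken as surrogate of viable cell content; spheroids exposed to compound for 7 days before viability readout; 100% = DMSO vehicle control viability and lower means growth inhibition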
Settings: second compound 0.003 µM; first compound 0.00949 µM; spheroids with HUVEC and MSC
Procedure: Multicellular complex tumor spheroid response to DNA repair inhibitors in combination with DNA-damaging drugs This study explores the anticancer activities of DNA-damaging drugs and inhibitors of DNA damage repair, both as single agents and in combinations. […] Twenty-six patient-derived or established malignant cell lines were evaluated representing sarcoma, melanoma, small cell lung cancer (SCLC), non-small cell lung cancer (NSCLC), as well as bladder, ovarian and pancreatic cancers. […]
Respond using exactly one of the listed classes: YES (active), NO (inactive)

As a guide, the following entries are already answered.
- CNCc1ccc(-c2cc(-c3nc(-c4ccc(S(=O)(=O)C(C)C)cc4)cnc3N)on2)cc1 + COc1cc2c(cc1O)CCNC21CSC2c3c(OC(C)=O)c(C)c4c(c3C(COC1=O)N1C(O)C3Cc5cc(C)c(OC)c(O)c5C(C21)N3C)OCO4: YES
- Cn1ncnc1[C@H]1c2n[nH]c(=O)c3cc(F)cc(c23)N[C@@H]1c1ccc(F)cc1 + CC[C@@]1(O)C(=O)OCc2c1cc1n(c2=O)Cc2cc3c(CN(C)C)c(O)ccc3nc2-1: NO
- Cc1sc2c(c1C)C(c1ccc(Cl)cc1)=NC(CC(=O)Nc1ccc(O)cc1)c1nnc(C)n1-2 (stereo unspecified) + CC[C@@]1(O)C(=O)OCc2c1cc1n(c2=O)Cc2cc3c(CN(C)C)c(O)ccc3nc2-1: NO

Entry CNCc1ccc(-c2cc(-c3nc(-c4ccc(S(=O)(=O)C(C)C)cc4)cnc3N)on2)cc1 + CC[C@@]1(O)C(=O)OCc2c1cc1n(c2=O)Cc2cc3c(CN(C)C)c(O)ccc3nc2-1 : call = ?
NO

Would you mind doing Cn1ncnc1[C@H]1c2n[nH]c(=O)c3cc(F)cc(c23)N[C@@H]1c1ccc(F)cc1 + COc1cc2c(cc1O)CCNC21CSC2c3c(OC(C)=O)c(C)c4c(c3C(COC1=O)N1C(O)C3Cc5cc(C)c(OC)c(O)c5C(C21)N3C)OCO4 as well?
YES

Would you kindly repeat that for Cc1sc2c(c1C)C(c1ccc(Cl)cc1)=NC(CC(=O)Nc1ccc(O)cc1)c1nnc(C)n1-2 (stereo unspecified) + COc1cc2c(cc1O)CCNC21CSC2c3c(OC(C)=O)c(C)c4c(c3C(COC1=O)N1C(O)C3Cc5cc(C)c(OC)c(O)c5C(C21)N3C)OCO4 ?
YES

###

Below, each entry is listed alongside its reported viability, T/C.
Test system: 287954-098-R-J1 tumor spheroid viability
Experiment: Anticancer human tumor 287954-098-R-J1 cell line growth inhibition;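 also: luminescent signal taken as surrogate of viable cell content; spheroids exposed to compound for 7 days before viability readout; 100% = DMSO vehicle control viability and lower means growth inhibition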
Settings: second compound 30 pM; first compound 10 µM; active compounds read low; spheroids with HUVEC and MSC
Protocol: Multicellular complex tumor spheroid response to DNA repair inhibitors in combination with DNA-damaging drugs This study explores the anticancer activities of DNA-damaging drugs and inhibitors of DNA damage repair, both as single agents and in combinations. […] Twenty-six patient-derived or established malignant cell lines were evaluated representing sarcoma, melanoma, small cell lung cancer (SCLC), non-small cell lung cancer (NSCLC), as well as bladder, ovarian and pancreatic cancers. […]
Express the result in % but write the number alone.

Example cases with answers are listed next.
* Cc1cc(C)c(CNC(=O)c2cc(-c3ccc(CN4CCOCC4)cc3)cc3c2cnn3C2CCCC2)c(=O)[nH]1 + COc1cc2c(cc1O)CCNC21CSC2c3c(OC(C)=O)c(C)c4c(c3C(COC1=O)N1C(O)C3Cc5cc(C)c(OC)c(O)c5C(C21)N3C)OCO4 | 116
* [2H]c1nc(C)nc([2H])c1-c1cc(NC[C@@H](C)c2cccc3c(C(=O)NC)ccnc23)ncn1 + COc1cc2c(cc1O)CCNC21CSC2c3c(OC(C)=O)c(C)c4c(c3C(COC1=O)N1C(O)C3Cc5cc(C)c(OC)c(O)c5C(C21)N3C)OCO4 | 98.6

What does the data say about its viability, T/C? Entry: CC1COCCN1c1cc(-c2ccnn2C)c2ccnc(-c3ccn[nH]3)c2n1 (stereo unspecified) + COc1cc2c(cc1O)CCNC21CSC2c3c(OC(C)=O)c(C)c4c(c3C(COC1=O)N1C(O)C3Cc5cc(C)c(OC)c(O)c5C(C21)N3C)OCO4
2.96

COc1ccc([C@@H](O)c2cc(-c3ncnc4cc(N5CCOCC5)ccc34)c(F)cc2Cl)nn1 + COc1cc2c(cc1O)CCNC21CSC2c3c(OC(C)=O)c(C)c4c(c3C(COC1=O)N1C(O)C3Cc5cc(C)c(OC)c(O)c5C(C21)N3C)OCO4 ?
94.3

Also need COc1cc(C)[nH]c(=O)c1CN1CCc2c(Cl)cc(C(OC)C3COC3)c(Cl)c2C1=O (stereo unspecified) + COc1cc2c(cc1O)CCNC21CSC2c3c(OC(C)=O)c(C)c4c(c3C(COC1=O)N1C(O)C3Cc5cc(C)c(OC)c(O)c5C(C21)N3C)OCO4 , thanks.
89.9

Request: CC(C)n1c(=O)n(C)c2cnc3cc(F)c(-c4ccc(OCCCN5CCCCC5)nc4)cc3c21 + COc1cc2c(cc1O)CCNC21CSC2c3c(OC(C)=O)c(C)c4c(c3C(COC1=O)N1C(O)C3Cc5cc(C)c(OC)c(O)c5C(C21)N3C)OCO4
2.07
